# half-life per record follows
Assay: Rat pharmacokinetic study
Format: in vivo, SD rat
Conditions: SD, plasma, IV 2 mg/kg, read-out: t½ (converted)
Reply with a number, then the unit it belongs to.

Before answering, review these 4 worked examples.
MOLECULE SMILES | half-life
CCN(c1nc(-c2ccc(F)cc2)c(C#N)s1)c1c2nc(-c3cnc(N4CC[C@@H](O)C4)nc3)ccc2nn1CC | 4.1 h
CCN(c1nc(-c2ccc(F)cc2)c(C#N)s1)c1c2nc(-c3cnc(N4CCCS4(=O)=O)nc3)ccc2nn1CC | 4 h
CCc1nc2c(C)cc(N3CCN(CC(=O)N4CC(O)C4)CC3)cn2c1N(C)c1nc(-c2ccc(F)cc2)c(C#N)s1 | 1.5 h
CCN(c1nc(-c2ccc(F)cc2)c(C#N)s1)c1c2nc(-c3cnc(N4CCOCC4)nc3)ccc2nn1CC | 8.2 h

# context switch: different molecule, same half-life
Q) Name the recorded half-life for `CCN(c1nc(-c2ccc(F)cc2)c(C#N)s1)c1c2nc(-c3cnc(N4CCC(O)CC4)nc3)ccc2nn1CC` .
A) 9.3 h

Data origin, for the record: patent US20230295159A1
